I'd appreciate it if you could supply apparent Kd (screen) values for the items below.
- measured-on: T1, TNFR1 (Homo sapiens, UniProt P19438)
- T1 chain: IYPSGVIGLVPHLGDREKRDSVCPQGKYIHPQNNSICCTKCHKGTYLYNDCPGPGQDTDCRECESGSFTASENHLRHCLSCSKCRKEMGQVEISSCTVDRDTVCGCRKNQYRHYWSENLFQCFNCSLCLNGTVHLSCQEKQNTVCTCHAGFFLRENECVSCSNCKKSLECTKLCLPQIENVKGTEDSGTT
- assay-details: yeast display SC50
One number for each entry, in nM.

binder	apparent Kd (screen) [nM]
G54M (designed binder) MTLQELLREEALRRAEAEAFRYALELLAEKFPEQKEYLLDLAEEIESQIRSLSMVDVEDVRKFLDKEWAWVKELLAEHPAELAEVEAARAARLAELRAEVEAKVAA	12.5

Name the reported apparent Kd (screen) value associated with the binder E46K (designed binder) MTLQELLREEALRRAEAEAFRYALELLAEKFPEQKEYLLDLAEEIKSQIRSLSGVDVEDVRKFLDKEWAWVKELLAEHPAELAEVEAARAARLAELRAEVEAKVAA
0.593

All figures here come from paper PMC12416549.
